- assayOverview: growth suppression of PTEN-deleted HCT116, pilot screen, cell-based, HCT116 clonal line, CellTiter-Glo (AID 824);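 also: 0% = 20 µM Hyamine control and 100% = vehicle cell control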
- testSettings: 60 h, at 10 µM, stronger effect = lower value
Inconclusive results are not listed.
I'd appreciate it if you could supply viability values for the items below.
One number for each entry, in %.

{"compound": "O=C(Cc1cc(=O)[nH]c(=O)[nH]1)N1CCN(C(=O)c2ccco2)CC1", "u": "%", "viability": 95.6}
{"compound": "Cn1c(=O)oc2cc(S(=O)(=O)N3CCCC3)ccc21", "u": "%", "viability": 97.2}
{"compound": "O=C(O)CCC(=O)N1CCc2cc(S(=O)(=O)Nc3ccc4c(c3)OCCO4)ccc21", "u": "%", "viability": 96.3}
{"compound": "CCOC(=O)C1=C(CS(=O)(=O)c2ccccc2)NC(=O)NC1c1ccccc1OCC (stereo unspecified)", "u": "%", "viability": 101}
{"compound": "CCOC(=O)c1[nH]c(=O)[nH]c1COC(=O)c1cc2ccccc2o1", "u": "%", "viability": 105}

Batch request: viability per item, same order as input.
1. Cc1cc(-n2c(SCCC#N)nnc2-c2cccnc2)ccc1Cl
2. CCOC(=O)c1c(C)oc2cc(Br)c(OC(=O)N3CCOCC3)cc12
3. COc1ccc(Cc2nc(-c3cccs3)no2)cc1OC

Reply:
1. 94.5
2. 88.8
3. 80.9

Batch request: viability per item, same order as input.
1. CCC(C)NC(=O)C1CCN(C(=O)c2ccccc2)CC1 (stereo unspecified)
2. COc1ccc(-c2nc(CS(=O)CC(=O)NC3CCCc4ccccc43)c(C)o2)cc1OC (stereo unspecified)
3. Cn1cnnc1SCC(=O)c1ccc2c(c1)CCCC2

Reply:
1. 98.2
2. 90.9
3. 96.6
